Molecular target: SERT (Homo sapiens)
Construct: purchased Perkin-Elmer (Boston, MA, USA) RBHSTM400UA; host or cells: HEK-293 clonal cell line
Sequence (P31645 whole entry): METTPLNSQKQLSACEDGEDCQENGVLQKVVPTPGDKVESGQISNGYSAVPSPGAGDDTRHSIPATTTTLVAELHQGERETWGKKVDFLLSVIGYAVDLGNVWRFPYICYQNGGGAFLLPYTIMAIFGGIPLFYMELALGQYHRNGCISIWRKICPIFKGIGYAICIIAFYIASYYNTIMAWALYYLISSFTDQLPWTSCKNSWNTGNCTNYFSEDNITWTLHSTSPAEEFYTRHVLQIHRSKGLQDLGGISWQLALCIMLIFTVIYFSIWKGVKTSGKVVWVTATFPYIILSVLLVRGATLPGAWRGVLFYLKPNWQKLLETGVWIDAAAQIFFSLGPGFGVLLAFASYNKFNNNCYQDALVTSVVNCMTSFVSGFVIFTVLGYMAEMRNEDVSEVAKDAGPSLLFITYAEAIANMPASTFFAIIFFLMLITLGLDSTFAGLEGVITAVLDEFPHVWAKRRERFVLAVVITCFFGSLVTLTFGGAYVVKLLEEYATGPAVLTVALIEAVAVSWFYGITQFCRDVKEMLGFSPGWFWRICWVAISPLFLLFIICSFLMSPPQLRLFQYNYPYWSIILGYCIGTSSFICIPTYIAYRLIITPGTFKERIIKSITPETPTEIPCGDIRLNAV
Test: SERT competitive binding assay, [3H]-paroxetine, membranes from HEK-293 clonal cell line overexpressing SERT
Settings: 2 nM [3H]-paroxetine, 1 h at 27 °C; mean ± SEM of three experiments, each in triplicate; read-out: Ki SERT
pKi: −log10 of the molar value.
Assay Readout: pKi

Past entries and their recorded results:
O=C(CN1CCN(CCCc2c[nH]c3ccccc23)CC1)N1CCOc2ccc(Cl)cc21 ... 7.09
O=C(CN1CCN(CCCc2c[nH]c3ccc(Br)cc23)CC1)Nc1ccc(F)c(C(=O)NCCN2CCOCC2)c1 [Compound 13g] ... 7.90

I. O=C(CN1CCN(CCCc2c[nH]c3ccc(F)cc23)CC1)N1CCOc2cc(F)ccc21
II. COc1ccc2c(c1)N(C(=O)CN1CCN(CCCc3c[nH]c4ccccc34)CC1)CCO2
query: Which value of pKi is numerically greater: that of I or that of II ? Mark your selection by writing its label.
result: I
